# EXPERIMENTAL TARGET: UniProtKB P49137
# METHOD DESCRIPTION: MK2 degradation in human SW1353 cells (MSD, 24 h)
# Assay type: cell-based
# Design: endogenous in cells; host or cells: SW-1353 (ATCC HTB-94)
# ASSAY CONDITIONS: read-out: MK2 MSD SW1353 degradation 24 h GMean External Abs DC50
MEASURED PROPERTY: DC50

COMPOUND: C[C@@H]1CNc2c(sc3ccc4nc(N5CCC(COC6CCN(c7ccc8c(c7)n(C)c(=O)n8C7CCC(=O)NC7=O)CC6)CC5)ccc4c23)C(=O)N1 (stereo partly drawn) [I-38]
EXPERIMENTAL VALUE: < 1 nM

COMPOUND: COc1cc(-c2nccc(-c3cc4c([nH]3)C3(CC3)CNC4=O)n2)ccc1N1CCN(CC2CN(c3ccc4c(c3)n(C)c(=O)n4C3CCC(=O)NC3=O)C2)CC1 (stereo not drawn) [I-54]
EXPERIMENTAL VALUE: < 1 nM

COMPOUND: Cn1c(=O)n(C2CCC(=O)NC2=O)c2cccc(-n3ccc(N4CCN(c5ccc(-c6nccc(-c7cc8c([nH]7)C7(CCCC7)CNC8=O)n6)cc5)CC4)c3)c21 (stereo not drawn) [I-32]
EXPERIMENTAL VALUE: > 100 nM

COMPOUND: C[C@@H]1CNc2c(sc3ccc4nc(N5CCN(CCC6CCC7(CC6)CCN(C(=O)c6ccc(Cl)c(N8CCC(=O)NC8=O)c6)CC7)CC5)ccc4c23)C(=O)N1 [I-26]
EXPERIMENTAL VALUE: 1 to 10 nM

COMPOUND: C[C@@H]1CNc2c(sc3ccc4nc(N5CCC(OC6CCC7(CC6)CN(c6ccc8c(c6)n(C)c(=O)n8C6CCC(=O)NC6=O)C7)CC5)ccc4c23)C(=O)N1 (stereo partly drawn) [I-36]
EXPERIMENTAL VALUE: < 1 nM

# evaluate next
## Task Recorded DC50 of C[C@@H]1CNc2c(sc3ccc4nc(N5CCC(N(CC(F)F)C6CC7(CCN(c8ccc9c(c8)n(C)c(=O)n9C8CCC(=O)NC8=O)CC7)C6)CC5)ccc4c23)C(=O)N1 (stereo partly drawn) [I-46] , please.
## Result < 1 nM

* * *

# EXPERIMENTAL TARGET: MK2 (Homo sapiens)
# Sequence (P49137 whole entry): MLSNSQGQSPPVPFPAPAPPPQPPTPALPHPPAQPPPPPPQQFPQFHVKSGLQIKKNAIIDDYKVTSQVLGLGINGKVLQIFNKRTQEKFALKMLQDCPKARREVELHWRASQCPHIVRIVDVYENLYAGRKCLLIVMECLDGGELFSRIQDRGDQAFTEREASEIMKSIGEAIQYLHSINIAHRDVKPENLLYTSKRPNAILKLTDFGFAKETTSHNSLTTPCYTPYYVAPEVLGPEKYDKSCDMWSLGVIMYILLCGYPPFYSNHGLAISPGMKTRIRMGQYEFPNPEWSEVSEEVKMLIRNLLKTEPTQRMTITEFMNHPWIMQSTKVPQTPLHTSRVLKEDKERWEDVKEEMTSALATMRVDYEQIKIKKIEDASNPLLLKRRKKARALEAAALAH
# METHOD DESCRIPTION: MK2 degradation in human THP-1 monocytic cells (MSD, 24 h)
# Type: cell-based
# Parameters: endogenous in cells
# ASSAY CONDITIONS: THP-1 cells, read-out: MK2 MSD THP-1 degradation 24 h GMean External Abs DC50
MEASURED PROPERTY: DC50

Sample records with DC50:
MOLECULE: Cn1c(=O)n(C2CCC(=O)NC2=O)c2ccc(N3CC(CN4CCC(n5cc(-c6nccc(-c7cc8c([nH]7)C7(CC7)CNC8=O)n6)cn5)CC4)C3)cc21 (centres unmarked) [I-44]
EXPERIMENTAL VALUE: > 100 nM
--
MOLECULE: Cn1c(=O)n(C2CCC(=O)NC2=O)c2ccc(N3CC(CN4CCN(c5ccc(-c6nccc(-c7cc8c([nH]7)C(C)(C)CNC8=O)n6)cc5)CC4)C3)cc21 (centres unmarked) [I-22]
EXPERIMENTAL VALUE: < 1 nM
--
MOLECULE: C[C@@H]1CNc2c(sc3ccc4nc(N5CCC(OC6CCC7(CC6)CN(c6ccc8c(c6)n(C)c(=O)n8C6CCC(=O)NC6=O)C7)CC5)ccc4c23)C(=O)N1 (some centres unmarked) [I-36]
EXPERIMENTAL VALUE: < 1 nM
--
MOLECULE: Cn1c(=O)n(C2CCC(=O)NC2=O)c2ccc(N3CC(CN4CCC(N5CCN(c6nccc(-c7cc8c([nH]7)C7(CC7)CNC8=O)n6)CC5)CC4)C3)cc21 (centres unmarked) [I-34]
EXPERIMENTAL VALUE: > 100 nM

## Task DC50 for C[C@@H]1CNc2c(sc3ccc4nc(N5CCN(CC6CC7(CCN(c8ccc9c(N%10CCC(=O)NC%10=O)cncc9c8)CC7)C6)CC5)ccc4c23)C(=O)N1 [I-50] ?
## Result < 1 nM

## Task Fill blank: measured DC50 of the molecule C[C@@H]1CNc2c(sc3ccc4nc(N5CCC(COC6CCN(c7ccc8c(c7)n(C)c(=O)n8C7CCC(=O)NC7=O)CC6)CC5)ccc4c23)C(=O)N1 (some centres unmarked) [I-38] is ____.
## Result < 1 nM

## Task Which DC50 reading was recorded for the molecule C[C@@H]1CNc2c(sc3ccc4nc(N5CCN(C6CC7(CCN(c8ccc(NC9CCC(=O)NC9=O)cc8F)CC7)C6)CC5)ccc4c23)C(=O)N1 (some centres unmarked) [I-25] ?
## Result < 1 nM
